# credit: patent US4963581A

Can you tell me IC50 for the items I'm about to list?
Molecular target: Human placental aromatase (Homo sapiens)
Sequence (P11511 1-503): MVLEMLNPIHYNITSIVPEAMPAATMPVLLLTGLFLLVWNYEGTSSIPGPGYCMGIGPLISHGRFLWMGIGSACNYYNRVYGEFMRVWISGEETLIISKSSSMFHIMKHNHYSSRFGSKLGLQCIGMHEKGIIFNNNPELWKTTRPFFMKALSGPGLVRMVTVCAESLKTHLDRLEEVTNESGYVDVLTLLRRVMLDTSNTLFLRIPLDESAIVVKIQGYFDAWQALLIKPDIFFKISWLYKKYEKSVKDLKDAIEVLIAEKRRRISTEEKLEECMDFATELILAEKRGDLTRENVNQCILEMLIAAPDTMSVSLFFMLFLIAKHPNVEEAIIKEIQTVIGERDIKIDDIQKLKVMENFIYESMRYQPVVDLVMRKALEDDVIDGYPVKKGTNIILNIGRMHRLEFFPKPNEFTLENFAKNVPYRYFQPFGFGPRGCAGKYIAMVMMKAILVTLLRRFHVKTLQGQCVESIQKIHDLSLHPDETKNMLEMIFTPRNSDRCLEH
Please answer using a numeric value trailed by its unit.

Some solved entries appear below for comparison.
CC1Cc2cc3c(c(O)c2C(=O)O1)C(=O)C(C1=C(N)C(=O)c2cc4c(c(O)c2C1=O)C(=O)OC(C)C4)=C(N)C3=O (centres unmarked); 7.16 µM
COC1=C(C2=C(OC)C(=O)c3cc4c(c(O)c3C2=O)C(=O)OC(C)C4)C(=O)c2c(cc3c(c2O)C(=O)OC(C)C3)C1=O (centres unmarked); 8.18 µM

# batch: return IC50 for each of the 3 compounds below
1. CNC1=C(C2=C(NC)C(=O)c3cc4c(c(O)c3C2=O)C(=O)OC(C)C4)C(=O)c2c(cc3c(c2O)C(=O)OC(C)C3)C1=O (centres unmarked)
2. COc1cc2cc3c(c(O)c2c(O)c1C1=C(N)C(=O)c2cc4c(c(O)c2C1=O)C(=O)OC(C)C4)C(=O)OC(C)C3 (centres unmarked)
3. COC1=CC(=O)c2c(cc3c(c2O)C(=O)OC(C)C3)C1=O (centres unmarked)

Solution:
1. 10.5 µM
2. 50.4 µM
3. 2.78 µM
